All figures here come from PubChem BioAssay AID1508600.

The following sequences are shown together with reported z-score values.
assay: Components of the Cytosolic LPS Sensing Pathway: Gene Identification via Genome-wide siRNA Screen;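 also: robust z of the log signal after scaling to non-targeting control siRNA wells of the plate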
measurementConditions: RAW264.7 macrophages, IL-1a HTRF, actives lie on both sides, screened at 100 nM (by protocol), cells primed 5 h with Pam3CSK4 first
The whole screen tested about 53,000 sequences, of which about 3,700 (7%) were called active. Shown is part of a subset that was picked to be rich in actives.
reportedMetric: z-score

>>> print(df.to_string())
                           residuesequence  measured
 0     ACCUUUUCAAAUCUGUGCGTT against Uts2b    -0.928
 1     GCUCUAAAUGAACAUCUCATT against Snai3     0.322
 2       GGCAUUCAAACCUCUCGUGTT against Dcn    -0.921
 3    CCGAGAACCUUAAACUCCCTT against Sowahc     0.161
 4   GGAUAGUCUCCUCAAAGAATT against Trmt10b       0.7
 5    GGCUUUGUUAGUCUAUGACTT against Dzip1l    -0.552
 6    GCCCAUUGUAAUAAAAGCCTT against Dnali1    -0.582
 7    GGACUUGAAACUUCUGGAUTT against Nudt16     0.453
 8   CCUACUGGAGUCUCCUCUUTT against Tmem116      0.36
 9     GGGAUGAGUUCUUGUAAAUTT against Unc50     -1.32
10    CCAGACAUCGUGCUUUACATT against Chrna3      1.42
11  GGCUGUGCUCCUUGUUAGUTT against Olfr1143    -0.083

* * *

assay: Components of the Cytosolic LPS Sensing Pathway: Gene Identification via Genome-wide siRNA Screen;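 also: robust z of the log signal after scaling to non-targeting control siRNA wells of the plate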
measurementConditions: RAW264.7 macrophages, IL-1a HTRF, actives lie on both sides, screened at 100 nM (by protocol), cells primed 5 h with Pam3CSK4 first
Hit rate of the full screen: of about 53,000 sequences, about 3,700 (7%) were called active.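 The calls were made as follows: active = gene knockdowns whose robust z-score for IL-1 alpha signal is at least 2 or at most -2, so actives lie on both sides; inactive = the rest.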 Many of the other results were omitted from the sample, so actives are more common in it than they were.
Outcome codes: label 1 (active), label 0 (inactive)

                         residuesequence  classlabel
0     GGCCAGACACAGGUAGACATT against B9d2     label 0
1  GGGCAUAUGAGAUUUAUUATT against Trappc2     label 0
2    GGCCACUUGAGAACAUUCGTT against Nop10     label 0
3    GGAAAUCAGAAUUCCAAAATT against Cntn6     label 0
4    GCCUUCCAGUCAGUGAAAUTT against Foxn1     label 0
5  GAAUGCUCUGAGACUUUUATT against Cd300c2     label 1

* * *

assay: Components of the Cytosolic LPS Sensing Pathway: Gene Identification via Genome-wide siRNA Screen;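 also: robust z of the log signal after scaling to non-targeting control siRNA wells of the plate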
measurementConditions: RAW264.7 macrophages, IL-1a HTRF, actives lie on both sides, screened at 100 nM (by protocol), cells primed 5 h with Pam3CSK4 first
The whole screen tested about 53,000 sequences, of which about 3,700 (7%) were called active. Only a selection was taken, and actives are over-represented in it overall.
reportedMetric: z-score

>>> df
                          residuesequence  measured
 0  GGAAUCUGCUAUGCUUAAATT against Rdh16f2     -1.84
 1     GGCAUUUGCACAGUUUAUGTT against Upp2     -1.42
 2   GCCAAUAGUAACCAGCCAGTT against Prkab1     -2.07
 3   CCUUCAACUAUGGCAAAUATT against Cacul1    -0.241
 4  CCUCCCUAAUGGUCCAUUATT against Cyp2j13    -0.517
 5  GGAGAAGGUAGUUCUGAAATT against Slc7a11    -0.349
 6   GGAGACAUUGCUAUAUAUGTT against Hmgcs1    -0.207
 7   GGUGAAAGGAGUCAGUCUATT against Agtrap    -0.013
 8  GGACACCAACAUAUUGUUCTT against Slc13a2    -0.128
 9   GGCAAAUAUUCAGUUUGGATT against Scarb2  -0.00406
10    GGACAGACCACACUUCAUGTT against Foxp3    -0.494
11    GCAGAAGGUACUACUAUCGTT against Rcsd1     0.669

* * *

assay: Components of the Cytosolic LPS Sensing Pathway: Gene Identification via Genome-wide siRNA Screen;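 also: robust z of the log signal after scaling to non-targeting control siRNA wells of the plate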
measurementConditions: RAW264.7 macrophages, IL-1a HTRF, actives lie on both sides, screened at 100 nM (by protocol), cells primed 5 h with Pam3CSK4 first
In all, about 53,000 sequences went through this assay and about 3,700 (7%) were called active. Shown is part of a subset that was picked to be rich in actives.
z-score reference
reportedMetric: z-score

                             residuesequence  measured
 0      GGUCUCUUCAUGAUGGAUGTT against Akt1s1     0.731
 1       GCUACAAUUGGCCUUAUCUTT against Stpg2     -3.03
 2      GGGUGAAAAUGGCAUUGUUTT against Col1a2      0.56
 3     CCGAGAUUGCCUGUUUGGUTT against Rnf144b      2.08
 4        GCUUCACAGAAGCUUUGUGTT against Ccl4    -0.156
 5      GCCCUUUGACAAUUUGUUUTT against Stra6l    -0.661
 6     GGCCGAAUCACAGAAACUCTT against Mrps18a      1.87
 7     GGAACAAGCAAGUCAAACATT against Olfr770      2.24
 8     GGUGACUAACGAGAUCAUUTT against Slc19a1     0.913
 9     CCCUGAAAAUUAUCGAGCGTT against Galnt18    -0.493
10      GGUUUCAGAGCUAAACCCUTT against Larp4b     0.235
11         GGAUAAACAGCUGAAGGUGTT against Ccs     0.762
12    GGGUCUUUAAACUGAAAGATT against Sh3pxd2a    0.0777
13   GGCAAAUGUAGACAUGUAUTT against Defb44-ps   -0.0483
14       GGUCAUGCUGAUCAGCGACTT against Itfg2    -0.564
15      GCCUCGAUGCAAGAUGAUGTT against C2cd2l     -0.82
16       GGAAAACAAGAAAGAUGAATT against Snupn     -1.05
17        CGAUAAUGAAAGUGACCAUTT against Uri1   -0.0814
18       GGAUCUGACAAGGUACAAGTT against Acsm5     0.145
19        GGAGAUGAGGAAGCUCUUCTT against Usp4    -0.747
20      GGUACGAAGUCAAAGUGAATT against Dnmt3l    0.0494
21        GGAAAACGAGUCAAACUCATT against Lnx2       3.4
22       GGCUGUCAUCCAAGAACUUTT against Mtcp1     0.176
23       GCGAAUCCACUUAAUUCGATT against Abhd4      1.35
24     GCGAUUCGUCUUCGAGUUCTT against Fam161a     0.483
25        GGGUAAACACCCAUUUAGCTT against Lbx2    -0.156
26      GGUCACCACACGAUCUACATT against Slc4a4      3.14
27        GGUAACUAUGAAGAGAUCATT against Neu2     0.312
28        GCUAUGUGUUGAUUUAAAGTT against Pdk1     0.422
29      GGAUCGUGAGCUUCUAUUATT against Gask1a     0.434
30  GGCAAUGUUUUUCUUGUUGTT against 9330132A10Rik     -1.12
31       GGUGAUCCUAAGAAAGUCCTT against Ireb2      1.07
32      GCACUGGACCAAAGAACGGTT against Cercam      1.14
33       GGCAGGUAUGGAUGUAUUGTT against Renbp     -1.72
34       GGUUUUGCCUCCCAUAGUATT against Ssty1     0.112
35       GCAAACUAUUUGUCUGGUGTT against Ripk1       0.7
36      UGGCAAAAAGGUGAUAACUTT against Hbb-b2      0.86
37        CCAAAAAAUCCUAUACUCUTT against Cdh8      1.42
38       CGGAACCUUAUUUAAAACUTT against Sirt5     0.732
39      GGUACACUGGUAUACGUAUTT against Samd9l     -1.45
40        GGGCCUAUGCUUACAAACGTT against Pkp3      2.37
41  GGACCCAGCAGUCAAGAUATT against 9930038B18Rik    0.0416
42        GGUAUUUAAUGGAAGCCUGTT against Acp7    -0.537
43    GGUGUAUUAAAAUGUCAGUTT against Marveld2      1.92
44  GGUUUAAGCUUUUUGUGGATT against D130079A08Rik    0.0133
45       GGCAUAAACCACUUCCAGCTT against Dedd2     0.342
46       GGUGUCCACAUUAAAUUACTT against Foxb1      2.21
47     GGUGAAAAGCAGCUAACAATT against Fam135a      -1.6
48       GGAGAGAGAUUUUCAAUAUTT against Gtdc1     -0.41
49      GGCAUAUGUUGAAACUAUUTT against Sel1l3      1.29
